Readout Label: melting point

INSERT INTO measurements (compound, readout_label, result) VALUES
  ('O=C1C=CC(=O)c2cc(C(F)(F)F)c(C(F)(F)F)cc21', 'melting point', '91 to 94 °C'),
  ('Cc1nc(-c2ccc(F)cc2)n(-c2ccc(S(N)(=O)=O)cn2)n1', 'melting point', '221 to 222 °C'),
  ('CC12CCCCC1(O)CCC1C2CCC2(C)C1CC13OCCOC12OCCO3 (centres undefined)', 'melting point', '160 to 162 °C'),
  ('C#CCOCCCCCCCCCC(=O)O', 'melting point', '< 30 °C'),
  ('CC(C)N(CCN1C(=O)/C(=N/NC(=O)NC2CCCCC2)c2cc(Br)ccc21)C(C)C', 'melting point', '155 to 156 °C'),
  ('Cc1cccc2c1N(CC(=O)N1CC3CCC(CC3)C1)C(=O)C(NC(=O)Nc1cccc(O)c1)N=C2c1ccccc1F (centres undefined)', 'melting point', '193 to 204 °C'),
  ('CCOC(=O)C(Cc1ccccc1)C(=O)Nc1ccc(CP(=O)(OCC)OCC)cc1 (centres undefined)', 'melting point', '115 to 116 °C'),
  ('COC(=O)c1ccccc1S(=O)(=O)Nn1c(SC)nn(-c2nc(OC)cc(OC)n2)c1=O', 'melting point', '179 °C'),
  ('CC(C)OC1CC(O)C(=O)N1S(=O)(=O)c1ccccc1 (centres undefined)', 'melting point', '127 to 129 °C'),
  ('NS(=O)(=O)c1cccc(NC(=O)c2cnn3ccc(-c4ccc(Cl)cc4)nc23)c1', 'melting point', '345 °C'),
  ('O=C(O)c1ccc(S(=O)(=O)Nc2cc3c4c(c2)CCCC4CCC3)cc1', 'melting point', '266 to 268 °C'),
  ('O=C1NCC=NN1c1cc(Cl)c(Cc2ccc(C(O)c3ccc(Cl)nc3)cc2)c(Br)c1 (centres undefined)', 'melting point', '167 to 169 °C'),
  ('O=C(C=Cc1ccc(CNC2CC2)cc1)Nc1ccc(-c2ccc(Cl)cc2)cc1', 'melting point', '222 to 223 °C'),
  ('Cc1nc2cnccc2n1-c1ccc(C2=Cc3nccn3-c3cc(Cl)c(Cl)cc3N2C)cc1', 'melting point', '268 to 270 °C'),
  ('NNc1nncc(-c2cccc(Cl)c2)n1', 'melting point', '163 to 166 °C'),
  ('Cc1oc(-c2ccccc2)nc1CCc1ccc(C=CC=O)cc1', 'melting point', '99 to 100 °C'),
  ('COc1ccc(C(C)(C)CCC(=O)O)cc1NC(=O)C[C@H]1O[C@H](c2cccc(OC)c2OC)c2cc(Cl)ccc2N(CC(C)(C)CO)C1=O', 'melting point', '173 to 174 °C'),
  ('CN(CCO)c1nccc(NC(N)=NCC(F)(F)F)n1', 'melting point', '158 to 160 °C'),
  ('CC1(CCCOc2ccc([N+](=O)[O-])c(C=C3NC(=O)NC3=O)c2)OCCO1', 'melting point', '175 to 180 °C');

###

Below, each of the compounds is paired with its reported melting point value.
Readout Label: melting point

INSERT INTO results (compound, result) VALUES
  ('CN1CCN(c2cccc3c2C[C@H](NC(=O)c2ccc(Br)cc2)CC3)CC1', '200 to 201 °C'),
  ('COc1ccc2cc(C(=O)C(C)O[Si](C)(C)C)ccc2c1 (stereo not given)', '72 to 75 °C'),
  ('CC(=O)NC(c1ccc(F)cc1)(c1cc2c3c(c1)c(-c1cccc(Cl)c1)cc(=O)n3CC2)c1nncn1C (stereo not given)', '196 °C'),
  ('CC(C)OC(=O)c1ccc2c(c1)C(=O)CC(c1ccccc1)=N2', '> 300 °C'),
  ('COC(=O)CC(C)C(=O)c1ccc2c(c1)OCC(=O)N2 (stereo not given)', '95 to 98 °C'),
  ('CNC(=O)C1(C)NCCc2c1n(F)c1ccccc21 (stereo not given)', '238 °C'),
  ('Cc1ccc(N=C(N(Cc2ccccc2)C2CCCCC2)N(Cc2ccccc2)C2CCCCC2)cc1', '128 to 130 °C'),
  ('Nc1c(-c2ccc(OC(F)(F)F)cc2)nnn1-c1ccc(C(F)(F)F)cc1F', '134 to 135 °C'),
  ('COc1ccc(-c2[nH]cnc2-c2cc(OC)c([N+](=O)[O-])c(OC)c2)cc1O', '148 to 149 °C'),
  ('COc1cc(-c2oc3ccccc3c(=O)c2OCC(O)CN2CCN(c3ccccc3)CC2)cc(OC)c1OC (stereo not given)', '170 to 171 °C'),
  ('COC(=O)c1cc(C(=O)c2nc(Br)c3ccccn23)ccc1N', '230 °C'),
  ('CCOc1ccc(S(=O)(=O)N2CCN(C)CC2)cc1C(=O)O', '201 °C'),
  ('COc1ccc2nc(Cl)cc(C=CN(C)C)c2c1', '162 to 164 °C'),
  ('OC(Cn1ccnc1)(c1ccc(Cl)cc1)C1(Oc2ccc(Cl)cc2)CC1 (stereo not given)', '172 to 173 °C'),
  ('COc1ccc2c(c1)sc1nc(CO)cn12', '202 to 205 °C'),
  ('CC1(C)[C@@H]2CC3[C@H](C(=O)NCC(N)=O)[C@@]3(C)C[C@@H]21 (stereo not given in full)', '169 to 170 °C'),
  ('O=C(O)c1cccc2c1CCc1ccccc1S2', '186 to 187 °C'),
  ('CCOC(=O)CC(NC(=O)CNC(=O)c1csc(NC(=N)N)n1)c1cccnc1 (racemic)', '114 °C'),
  ('CC(C)Oc1ccc(Cc2ccc(NC3=NCCN3)cc2)s1', '134 to 135 °C'),
  ('CC(=O)OCCCOc1cccc2cc(C#N)c(=O)oc12', '132 to 135 °C');
